Listed next: entries and their corresponding Alveolitis (score).
System: rat pulmonary fibrosis model
testName: Lung tissue pathology, H&E and Masson staining, Szapiel scoring, Example 1
Type: in vivo, SD rats
studyConditions: H&E staining, score 0-3, doses per Table 4, 14 days, X ± SE, N = 6

Past entries and their recorded results:
compoundSmiles: COc1ccc(-c2cc(=O)c3c(OC)c(OC)c(OC)c(OC)c3o2)cc1OC
assayEndpoint: Alveolitis (score)
result: 1.39 ± 0.54 score
//
compoundSmiles: COc1ccc(-c2oc3c(CC=C(C)C)c(O[C@@H]4O[C@H](CO)[C@@H](O)[C@H](O)[C@H]4O)cc(O)c3c(=O)c2O[C@@H]2O[C@@H](C)[C@H](O)[C@@H](O)[C@H]2O)cc1
assayEndpoint: Alveolitis (score)
result: 0.94 ± 0.39 score
//
compoundSmiles: Cc1ccc(=O)n(-c2ccccc2)c1
assayEndpoint: Alveolitis (score)
result: 1.33 ± 0.24 score
//
compoundSmiles: C[C@H]1CC[C@@H]2N(C1)C[C@H]1[C@@H]3C[C@H]4[C@@H](C[C@H](O)[C@H]5C[C@@H](O)CC[C@@]54C)[C@@H]3CC[C@@H]1[C@]2(C)O
assayEndpoint: Alveolitis (score)
result: 1.17 ± 0.19 score

In the following, a different molecule is considered.
Ask | Data request, read-out Alveolitis (score), for O=C(/C=C/c1ccc(O)cc1)c1ccc(O)cc1O
Reply | 1.72 ± 0.25 score

Taken from patent US20260108548A1.
